Assay: Metabolic stability in human liver microsomes assessed as compound remaining at 0.5 uM incubated for 10 mins relative to control
Type: ADME, Microsome
Details: liver microsomes, read-out: Stability
Readout Kind: remaining at 10 min, 0.5 µM (%)

Worked examples follow.
• Cc1ccc(NC(=O)Nc2cc(-c3ccccc3-c3nn[nH]n3)cc3c2O[C@@H](C)C/C=C\[C@H]3c2ccccc2)cc1 = 94
• C=CC1(C=C)Oc2c(NC(=O)Nc3ccc(C)cc3)cc(-c3ccccc3-c3nn[nH]n3)cc2[C@@H]1c1ccccc1 = 94
• C=C[C@H]1Oc2c(NC(=O)Nc3ccc(C)cc3)cc(-c3ccccc3-c3nnn[nH]3)cc2[C@@H]1c1ccccc1 (racemic) = 78
• COc1ccc(-c2ccc(Oc3ccccc3C(C)(C)C)c(NC(=O)Nc3ccccc3F)c2)cc1C(=O)O = 100
• Cc1ccc(NC(=O)Nc2cc(-c3ccccc3-c3nn[nH]n3)cc3c2OCCCC3c2ccccc2)cc1 (stereo in doubt; 21) = 70
• Cc1ccc(NC(=O)Nc2cc(-c3ccccc3-c3nn[nH]n3)ccc2OC(C(C)C)C(C)C)cc1 = 41
• CCCC(CCC)Oc1ccc(-c2ccccc2-c2nn[nH]n2)cc1NC(=O)Nc1ccc(C)cc1 = 62
• CCCOc1c(CCC)cc(-c2ccccc2-c2nn[nH]n2)cc1NC(=O)Nc1ccc(C)cc1 = 82
• Cc1ccc(NC(=O)Nc2cc(-c3ccccc3-c3nn[nH]n3)cc3c2OCC=CC3c2ccccc2)cc1 (racemic) = 69
• Cc1ccc(NC(=O)Nc2cc(-c3ccccc3-c3nc(=O)[nH]o3)cc3c2OCCCC3c2ccccc2)cc1 (stereo in doubt; 19) = 72

1 = Cc1ccc(NC(=O)Nc2cc(-c3ccccc3-c3nnn[nH]3)ccc2N(CC(C)C)CC(C)C)cc1
2 = CCCOc1c(CCC)cc(-c2ccccc2C(=O)O)cc1NC(=O)Nc1ccc(C)cc1
[in] Return label of the item with the larger remaining at 10 min, 0.5 µM. Candidates: 1 , 2 . When you have decided, please share the label of that item.
[out] 2

1 = CC(C)CN(CC(C)C)c1ccc(-c2ccccc2C(=O)O)cc1NC(=O)Nc1ccccc1F
2 = Cc1ccc(NC(=O)Nc2cc(-c3ccccc3-c3nn[nH]n3)cc3c2OC(C)(C)[C@H]3c2ccccc2)cc1 (racemic)
[in] Smaller remaining at 10 min, 0.5 µM value? Options are 1 and 2 When you have decided, please share the label of that item.
[out] 2

====

Target: Cytochrome P450 2C8 (Homo sapiens)
Sequence (P10632 whole entry): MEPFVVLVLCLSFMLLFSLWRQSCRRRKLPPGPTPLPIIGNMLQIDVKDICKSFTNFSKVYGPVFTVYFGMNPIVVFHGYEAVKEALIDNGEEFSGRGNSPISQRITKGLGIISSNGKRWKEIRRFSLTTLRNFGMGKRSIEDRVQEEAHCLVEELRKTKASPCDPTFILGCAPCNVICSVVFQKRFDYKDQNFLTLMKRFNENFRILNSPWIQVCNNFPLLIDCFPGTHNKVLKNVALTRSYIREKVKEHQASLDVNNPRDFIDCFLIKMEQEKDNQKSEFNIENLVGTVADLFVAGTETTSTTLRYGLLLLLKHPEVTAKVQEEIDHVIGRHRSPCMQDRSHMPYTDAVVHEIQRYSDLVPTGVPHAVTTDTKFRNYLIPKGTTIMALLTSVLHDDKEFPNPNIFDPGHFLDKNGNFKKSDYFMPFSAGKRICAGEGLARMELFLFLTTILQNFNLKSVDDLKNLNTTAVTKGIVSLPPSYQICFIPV
Experiment: Inhibition of CYP2C8 (unknown origin)
Assay type: ADME
Readout Kind: IC50 (nM)

Worked examples follow.
• Cc1ccc(NC(=O)Nc2cc(-c3ccccc3-c3nn[nH]n3)cc3c2O[C@@H](C)CCC[C@H]3c2ccccc2)cc1 = 3200
• C=CC1(C=C)Oc2c(NC(=O)Nc3ccc(C)cc3)cc(-c3ccccc3-c3nn[nH]n3)cc2[C@@H]1c1ccccc1 = 270
• C=C[C@H]1Oc2c(NC(=O)Nc3ccc(C)cc3)cc(-c3ccccc3-c3nnn[nH]3)cc2[C@@H]1c1ccccc1 (racemic) = 1000

A = Cc1ccc(NC(=O)Nc2cc(-c3ccccc3-c3nn[nH]n3)cc3c2O[C@@H](C)C/C=C\[C@H]3c2ccccc2)cc1
B = COc1ccc(-c2ccc(Oc3ccccc3C(C)(C)C)c(NC(=O)Nc3ccccc3F)c2)cc1C(=O)O
[in] Return label of the item with the larger IC50. Candidates: A , B . When you have decided, please share the label of that item.
[out] B

Source: ChEMBL document CHEMBL5257092
